Heads up, these compounds all have pIC50 values measured for Mineralocorticoid receptor (Homo sapiens, UniProt P08235).
pIC50 here is simply -log10 of the concentration when that concentration is written in mol/L.

C=CCOC(C)C1=CC(C)(C)Nc2ccc(-c3cc(F)ccc3OC)cc21 (racemic)    6.01

In: Report the value of pIC50 obtained on Mineralocorticoid receptor (Homo sapiens, UniProt P08235) for Br.C=CCOC(C)C1=CC(C)(C)Nc2ccc(-c3cc(F)ccc3OC)cc21 (single isomer, unassigned; (+)) .
Sequence (P08235 whole entry): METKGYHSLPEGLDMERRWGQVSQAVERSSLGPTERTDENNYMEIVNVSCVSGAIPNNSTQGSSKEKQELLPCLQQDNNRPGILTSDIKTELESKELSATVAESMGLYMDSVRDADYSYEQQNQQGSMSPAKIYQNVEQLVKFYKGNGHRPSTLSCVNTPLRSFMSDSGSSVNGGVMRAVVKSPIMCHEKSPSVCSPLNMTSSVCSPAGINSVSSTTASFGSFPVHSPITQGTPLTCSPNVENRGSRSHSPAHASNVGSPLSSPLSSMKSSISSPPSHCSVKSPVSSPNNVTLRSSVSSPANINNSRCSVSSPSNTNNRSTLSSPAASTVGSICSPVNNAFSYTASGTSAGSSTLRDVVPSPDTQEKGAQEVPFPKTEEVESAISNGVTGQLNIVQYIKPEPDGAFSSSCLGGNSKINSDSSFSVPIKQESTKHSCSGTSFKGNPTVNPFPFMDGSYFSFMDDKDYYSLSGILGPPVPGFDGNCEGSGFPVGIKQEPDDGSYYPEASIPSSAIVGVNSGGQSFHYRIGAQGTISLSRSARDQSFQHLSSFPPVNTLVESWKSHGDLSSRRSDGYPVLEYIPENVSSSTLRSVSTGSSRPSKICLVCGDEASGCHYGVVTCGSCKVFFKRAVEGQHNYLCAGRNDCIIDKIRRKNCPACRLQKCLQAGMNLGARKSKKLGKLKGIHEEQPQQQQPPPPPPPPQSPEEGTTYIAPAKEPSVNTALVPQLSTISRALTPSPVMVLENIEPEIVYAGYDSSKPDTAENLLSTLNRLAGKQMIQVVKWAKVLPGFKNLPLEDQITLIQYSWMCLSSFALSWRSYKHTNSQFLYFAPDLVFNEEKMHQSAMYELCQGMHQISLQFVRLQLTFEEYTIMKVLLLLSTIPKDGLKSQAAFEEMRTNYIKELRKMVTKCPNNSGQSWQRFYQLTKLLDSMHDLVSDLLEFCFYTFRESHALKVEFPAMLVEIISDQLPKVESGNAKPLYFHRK
Out: 5.96

---

Entries annotated with measured half-life
- run-description: Metabolic stability in human liver microsomes
- Format: ADME, Microsome
Write down the numeric answer in min and omit the unit.

Example results:
Br.C=CCOC(C)C1=CC(C)(C)Nc2ccc(-c3cc(F)ccc3OC)cc21 (single isomer, unassigned; (+))    6
C=CCOC(C)C1=CC(C)(C)Nc2ccc(-c3cc(F)ccc3OC)cc21.Cl (single isomer, unassigned; (-))    5

In: Supply recorded half-life for COc1ccc(F)cc1-c1ccc2c(c1)C(CSCCc1ccccc1)=CC(C)(C)N2 here.
Out: 17

In: Supply recorded half-life for C=CCSCC1=CC(C)(C)Nc2ccc(-c3cc(F)ccc3OC)cc21 here.
Out: 12

In: Supply recorded half-life for C=CCOC(C)C1=CC(C)(C)Nc2ccc(-c3cc(F)ccc3OC)cc21 (racemic) here.
Out: 6
